Attribute: pest or weed control at 500 g/ha
System: pigweed (Amaranthus retroflexus)
Experiment: Test A preemergence
Assay type: in vivo
Conditions: Amaranthus retroflexus, pre-emergence, 240 h, 500 g ai/ha, preemergence; 0 to 100 scale where 0 is no effect and 100 is complete control; read-out: Pigweed plant response rating

[
  {
    "entry_smiles": "CSc1ccccc1NC(=O)[C@H]1C(=O)N(C)C[C@@H]1c1cccc(C)c1",
    "system_tested": "pigweed (Amaranthus retroflexus)",
    "pest or weed control at 500 g/ha (%)": 90
  },
  {
    "entry_smiles": "CSc1ccccc1NC(=O)[C@H]1C(=O)NC[C@@H]1c1ccc(F)c(C#N)c1",
    "system_tested": "pigweed (Amaranthus retroflexus)",
    "pest or weed control at 500 g/ha (%)": 70
  },
  {
    "entry_smiles": "O=C1NC[C@H](c2cscn2)[C@H]1C(=O)Nc1cccc(F)c1F",
    "system_tested": "pigweed (Amaranthus retroflexus)",
    "pest or weed control at 500 g/ha (%)": 0
  },
  {
    "entry_smiles": "O=C1NC[C@H](c2cc(C(F)F)cs2)[C@H]1C(=O)Nc1cccc(F)c1F",
    "system_tested": "pigweed (Amaranthus retroflexus)",
    "pest or weed control at 500 g/ha (%)": 0
  },
  {
    "entry_smiles": "CSc1ccccc1NC(=O)[C@H]1C(=O)N(C)C[C@@H]1c1ccc2c(c1)OC(F)(F)O2",
    "system_tested": "pigweed (Amaranthus retroflexus)",
    "pest or weed control at 500 g/ha (%)": 90
  },
  {
    "entry_smiles": "COc1cc([C@H]2CN(C)C(=O)[C@@H]2C(=O)Nc2ccccc2F)cc(OC)c1OC",
    "system_tested": "pigweed (Amaranthus retroflexus)",
    "pest or weed control at 500 g/ha (%)": 0
  },
  {
    "entry_smiles": "CN1CC[C@H](c2ccc(C(F)(F)F)cc2)[C@@H](C(=O)Nc2cccc(F)c2F)C1=O",
    "system_tested": "pigweed (Amaranthus retroflexus)",
    "pest or weed control at 500 g/ha (%)": 50
  },
  {
    "entry_smiles": "CCc1cc([C@H]2CN(C)C(=O)[C@@H]2C(=O)Nc2ccccc2F)cs1",
    "system_tested": "pigweed (Amaranthus retroflexus)",
    "pest or weed control at 500 g/ha (%)": 20
  }
]

====

Tested on: sedge, umbrella (small-flower umbrella sedge, Cyperus difformis)
Test: Test B flooded paddy test
Type: in vivo
Conditions: Cyperus difformis, Flood, 250 g ai/ha; scale of 0 to 100 where 0 is no effect and 100 is complete control; read-out: Sedge, Umbrella plant response rating
property_label: pest or weed control at 250 g/ha (%)

[
  {
    "entry_smiles": "CN1C[C@H](c2ccc3c(c2)CCC3)[C@@H](C(=O)Nc2cccc(F)c2F)C1=O",
    "property_label": "pest or weed control at 250 g/ha",
    "value_measured": 0
  },
  {
    "entry_smiles": "CN1C[C@H](c2cc(F)cc(F)c2)[C@@H](C(=O)Nc2ccccc2[S@+](C)[O-])C1=O",
    "property_label": "pest or weed control at 250 g/ha",
    "value_measured": 0
  },
  {
    "entry_smiles": "CN1C[C@H](c2ccc(C(F)(F)F)cc2)[C@@H](C(=O)Nc2ccc(F)c(F)c2F)C1=O",
    "property_label": "pest or weed control at 250 g/ha",
    "value_measured": 0
  },
  {
    "entry_smiles": "O=C1NC[C@H](c2cc(C(F)(F)F)cs2)[C@H]1C(=O)Nc1cccc(F)c1F",
    "property_label": "pest or weed control at 250 g/ha",
    "value_measured": 0
  }
]
